Listed here are compounds together with their documented DC50.
measurementTarget: Cbl-B (Homo sapiens)
Construct: MSD-Based Assay for Degradation of Cbl-B in THP-1 Cells; endogenous in cells; host or cells: THP-1 (title) / Jurkat (protocol text)
testDetails: MSD-based assay for degradation of Cbl-B in THP-1 cells
Assay type: cell-based
measurementSetup: Cbl-B degradation, Jurkat cells seeded (heading: THP-1 cells), 24 hours incubation, MSD readout

1) CN(CC1CCN(Cc2cc3c(c(C(F)(F)F)c2)CN(c2cccc([C@H](c4nncn4C)C4CCC4)c2)C3=O)CC1)C(=O)c1ccc(N2CCN(c3ccc4c(c3)CN([C@H]3CCC(=O)NC3=O)C4=O)CC2)cc1: < 30 nM

Lookup: Quote DC50 reported for Cn1cnnc1[C@@H](c1cccc(-n2cc3c(C(F)(F)F)cc(CN4CCC(OC(=O)N5CCC(CC6CCN(c7ccc8c(c7)CN([C@@H]7CCC(=O)NC7=O)C8=O)CC6)CC5)CC4)cn3c2=O)c1)C1CCC1 (single isomer, unassigned) please.
Found: 30 to 300 nM

###

measurementTarget: Cbl-B (Homo sapiens, UniProt Q13191)
Construct: MSD-Based Assay for Degradation of Cbl-B in THP-1 Cells; endogenous in cells; host or cells: THP-1 (title) / Jurkat (protocol text)
Sequence (Q13191 whole entry): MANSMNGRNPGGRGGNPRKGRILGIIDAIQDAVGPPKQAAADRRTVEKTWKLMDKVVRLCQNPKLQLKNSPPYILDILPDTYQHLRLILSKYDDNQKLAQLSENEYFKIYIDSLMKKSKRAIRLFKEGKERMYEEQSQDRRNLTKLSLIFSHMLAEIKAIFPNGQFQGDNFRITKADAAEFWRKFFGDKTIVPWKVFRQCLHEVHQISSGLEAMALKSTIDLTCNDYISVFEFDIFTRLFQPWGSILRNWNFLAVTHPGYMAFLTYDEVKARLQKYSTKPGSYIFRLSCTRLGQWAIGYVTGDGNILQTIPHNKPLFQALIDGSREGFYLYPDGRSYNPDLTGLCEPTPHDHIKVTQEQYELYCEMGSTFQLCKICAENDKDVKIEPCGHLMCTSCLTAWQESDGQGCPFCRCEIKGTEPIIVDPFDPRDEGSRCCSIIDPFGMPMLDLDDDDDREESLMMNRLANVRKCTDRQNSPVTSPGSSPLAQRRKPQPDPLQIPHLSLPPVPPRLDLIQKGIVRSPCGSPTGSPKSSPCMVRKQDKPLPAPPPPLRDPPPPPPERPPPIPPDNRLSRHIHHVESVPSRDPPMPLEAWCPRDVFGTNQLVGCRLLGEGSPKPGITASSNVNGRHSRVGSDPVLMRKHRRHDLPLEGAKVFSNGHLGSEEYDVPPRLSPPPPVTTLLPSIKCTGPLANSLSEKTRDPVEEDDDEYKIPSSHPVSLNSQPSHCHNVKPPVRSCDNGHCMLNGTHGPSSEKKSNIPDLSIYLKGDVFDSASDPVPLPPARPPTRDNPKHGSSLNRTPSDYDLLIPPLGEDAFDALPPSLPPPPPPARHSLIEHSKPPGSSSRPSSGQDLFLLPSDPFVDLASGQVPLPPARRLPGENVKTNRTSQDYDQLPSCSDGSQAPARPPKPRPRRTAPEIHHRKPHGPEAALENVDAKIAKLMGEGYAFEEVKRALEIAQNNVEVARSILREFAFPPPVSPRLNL
testDetails: MSD-based assay for degradation of Cbl-B in THP-1 cells
Format: cell-based
measurementSetup: Cbl-B degradation, Jurkat cells seeded (heading: THP-1 cells), 24 hours incubation, MSD readout; read-out: Dmax
// Dmax lookup, one value per entry

Lookup: Specify Dmax for Cn1cnnc1CC1(c2cccc(-n3cc4c(C(F)(F)F)cc(CN5CCC[C@@H](OC6CCN(C(=O)c7ccc(N8CCN(c9ccc%10c(c9)CN([C@H]9CCC(=O)NC9=O)C%10=O)CC8)cc7)CC6)C5)cn4c3=O)c2)COC1 (single isomer, unassigned) [Compound 264] and stop.
Found: > 70%

Lookup: Input Cn1cnnc1[C@@H](c1cccc(-n2cc3c(C(F)(F)F)cc(CN4CCC(CN5CCN(c6ccc7c(c6)CN([C@@H]6CCC(=O)NC6=O)C7=O)CC5)CC4)cn3c2=O)c1)C1CCC1 (single isomer, unassigned) [Compound 85] , output reported Dmax.
Found: 30 to 50%

Lookup: Output measured Dmax for this item: Cn1cnnc1CC1(c2cccc(-n3cc4c(C(F)(F)F)cc(CN5CCC[C@H](OCc6ccc(CN7CCN(c8ccc9c(c8)CN([C@H]8CCC(=O)NC8=O)C9=O)CC7)cc6)C5)cn4c3=O)c2)COC1 (single isomer, unassigned) [Compound 84]
Found: 30 to 50%

Lookup: Answer with reported Dmax of Cn1cnnc1CC1(c2cccc(-n3cc4c(C(F)(F)F)cc(CN5CCC(OCCN6CCN(CC7CCN(c8ccc9c(c8)CN([C@H]8CCC(=O)NC8=O)C9=O)CC7)CC6)CC5)cn4c3=O)c2)COC1 (single isomer, unassigned) [Compound 78]
Found: 50 to 70%

Lookup: Hello, please tell me recorded Dmax for this one: Cn1cnnc1[C@@H](c1cccc(-n2cc3c(C(F)(F)F)cc(CN4CCC(OCCc5ccc(CN6CCN(c7ccc8c(c7)CN([C@@H]7CCC(=O)NC7=O)C8=O)CC6)cc5)CC4)cn3c2=O)c1)C1CCC1 (single isomer, unassigned) [Compound 115]
Found: < 30%

###

measurementTarget: Cbl-B (Homo sapiens)
Construct: MSD-Based Assay for Degradation of Cbl-B in THP-1 Cells; endogenous in cells; host or cells: THP-1 (title) / Jurkat (protocol text)
testDetails: MSD-based assay for degradation of Cbl-B in THP-1 cells
Format: cell-based
measurementSetup: Cbl-B degradation, Jurkat cells seeded (heading: THP-1 cells), 24 hours incubation, MSD readout; read-out: Dmax
Quick reference: Dmax of the listed items.

1. Cn1cnnc1[C@@H](c1cccc(-n2cc3c(C(F)(F)F)cc(CN4CCC(OCCN5CCC(CN6CCN(c7ccc8c(c7)CN([C@@H]7CCC(=O)NC7=O)C8=O)CC6)CC5)CC4)cn3c2=O)c1)C1CCC1 (single isomer, unassigned) [Compound 48]: 30 to 50%

# next compound below
Lookup: Give Dmax; test system Cbl-B (Homo sapiens); compound Cn1cnnc1[C@@H](c1cccc(-n2cc3c(C(F)(F)F)cc(-c4nccn4CCOCCN4CCC(CN5CCN(c6ccc7c(c6)CN([C@@H]6CCC(=O)NC6=O)C7=O)CC5)CC4)cn3c2=O)c1)C1CCC1 [Compound 97]
Found: 30 to 50%

###

Listing of recorded Dmax by entry.
measurementTarget: Cbl-B (Homo sapiens)
Construct: MSD-Based Assay for Degradation of Cbl-B in THP-1 Cells; endogenous in cells; host or cells: THP-1 (title) / Jurkat (protocol text)
testDetails: MSD-based assay for degradation of Cbl-B in THP-1 cells
Format: cell-based
measurementSetup: THP-1

1) Cn1cnnc1CC1(c2cccc(-n3cc4c(C(F)(F)F)cc(CN5CCC(OCCCN6CCN(c7ccc8c(c7)CN([C@@H]7CCC(=O)NC7=O)C8=O)CC6)CC5)cn4c3=O)c2)COC1 (single isomer, unassigned): < 30%
2) Cn1cnnc1[C@@H](c1cccc(-n2cc3c(C(F)(F)F)cc(CN4CCC[C@@H](OCCN5CCC(CN6CCN(c7ccc8c(c7)CN([C@@H]7CCC(=O)NC7=O)C8=O)CC6)CC5)C4)cn3c2=O)c1)C1CCC1 (single isomer, unassigned): 50 to 70%
3) Cn1cnnc1[C@@H](c1cccc(-n2cc3c(C(F)(F)F)cc(CN4CCC(CC(=O)N5CCC(Cc6ccc(-c7ccc8c(c7)CN([C@H]7CCC(=O)NC7=O)C8=O)cc6)CC5)CC4)cn3c2=O)c1)C1CCC1: > 70%

Lookup: Name the recorded Dmax of CN(CCOC1CCN(Cc2cc(C(F)(F)F)c3cn(-c4cccc([C@H](c5nncn5C)C5CCC5)c4)c(=O)n3c2)CC1)C(=O)c1ccc(C2CCN(c3ccc4c(c3)CN([C@@H]3CCC(=O)NC3=O)C4=O)CC2)cc1 (single isomer, unassigned) , assay system Cbl-B (Homo sapiens).
Found: 50 to 70%

###

measurementTarget: Cbl-B (Homo sapiens)
Construct: MSD-Based Assay for Degradation of Cbl-B in THP-1 Cells; endogenous in cells; host or cells: THP-1 (title) / Jurkat (protocol text)
testDetails: MSD-based assay for degradation of Cbl-B in THP-1 cells
Format: cell-based
measurementSetup: Cbl-B degradation, Jurkat cells seeded (heading: THP-1 cells), 24 hours incubation, MSD readout
Procedure: MSD-Based Assay for Degradation of Cbl-B in THP-1 Cells Assay plates were then shaken at 600 rpm for 5 minutes, followed by incubation for 24 hours in the 37° C. TC incubator. […] Cell debris was then spun down at maximum speed (about 3200 g) for 30 min and lysates frozen in the −80° C. fridge. […] Plates were again washed 3× with 150 ul/well of 1×TBST, followed by addition of 1×MSD reading buffer (MSD, R92TC-2), 150 ul/well, diluted from 4× with water. […]
Measured DC50 values are reported for all entries that follow.

1. Cn1cnnc1[C@@H](c1cccc(-n2cc3c(C(F)(F)F)cc(CN4CCC[C@@H](OCCN5CCC(CN6CCN(c7ccc8c(c7)CN([C@H]7CCC(=O)NC7=O)C8=O)CC6)CC5)C4)cn3c2=O)c1)C1CCC1 (single isomer, unassigned): 30 to 300 nM

Please find the next molecule below.
Lookup: Answer with reported DC50 of Cn1cnnc1[C@@H](c1cccc(-n2cc3c(C(F)(F)F)cc(CN4CCC(CCN5CCC(CC6CCN(c7ccc8c(c7)CN([C@H]7CCC(=O)NC7=O)C8=O)CC6)CC5)CC4)cn3c2=O)c1)C1CCC1
Found: < 30 nM

###

The entries below are paired with their reported DC50.
measurementTarget: Cbl-B (Homo sapiens)
Construct: MSD-Based Assay for Degradation of Cbl-B in THP-1 Cells; endogenous in cells; host or cells: THP-1 (title) / Jurkat (protocol text)
testDetails: MSD-based assay for degradation of Cbl-B in THP-1 cells
Format: cell-based
measurementSetup: Cbl-B degradation, Jurkat cells seeded (heading: THP-1 cells), 24 hours incubation, MSD readout

Example cases with answers are listed next.
1) Cn1cnnc1[C@@H](c1cccc(-n2cc3c(C(F)(F)F)cc(CN4CCC[C@H](OCc5ccc(CC6CCN(c7ccc8c(c7)CN([C@H]7CCC(=O)NC7=O)C8=O)CC6)cc5)C4)cn3c2=O)c1)C1CCC1 (single isomer, unassigned): 300 to 1000 nM
2) CN(CCCN1CCN(Cc2cc(C(F)(F)F)c3cn(-c4cccc([C@H](c5nncn5C)C5CCC5)c4)c(=O)n3c2)CC1)C(=O)c1ccc(N2CCN(c3ccc4c(c3)CN([C@@H]3CCC(=O)NC3=O)C4=O)CC2)cc1 (single isomer, unassigned): < 30 nM
3) Cn1cnnc1[C@@H](c1cccc(N2Cc3c(cc(CN4CCC[C@H](OCc5ccc(CC6CCN(c7ccc8c(c7)CN([C@H]7CCC(=O)NC7=O)C8=O)CC6)cc5)C4)cc3C(F)(F)F)C2=O)c1)C1CCC1: 300 to 1000 nM

Proceed to the following item.
Lookup: Tell me DC50 of Cn1cnnc1[C@@H](c1cccc(-n2cc3c(C(F)(F)F)cc(CN4CCN(CCc5ccc(C6CCN(c7ccc8c(c7)CN([C@@H]7CCC(=O)NC7=O)C8=O)CC6)cc5)CC4)cn3c2=O)c1)C1CCC1 when tested on Cbl-B (Homo sapiens).
Found: 30 to 300 nM
